- Tested on: 7G8
- test details: qHTS profiling for inhibitors of Plasmodium falciparum proliferation (AID 504749); further: nearly all actives have a fitted effect of over 60% in size
- condition notes: P. falciparum in erythrocytes, SYBR Green DNA, 72 h; series mostly up to 12.8 µM
Inconclusive results are not listed. The source made the active and inactive calls. The call rests on the fitted dose curve; in most records, active means well fitted inhibition curve with a large enough effect; inconclusive means small, poorly fitted or top-dose-only effect; inactive means flat fitted curve, though single readings scatter.
Select the matching outcome among class 1 for active, class 0 for inactive

Req: Test call, this compound: CN1[C@@H]2CC[C@H]1CC(OC(=O)[C@@H](O)c1ccccc1)C2 (stereo not given in full)
Resp: class 0

Req: Test call, this compound: `CC[C@]1(C)CC(=O)NC1=O`
Resp: class 0

Req: Test call, this compound: `C[C@@H](CCc1ccccc1)NC[C@H](O)c1ccc(O)c(C(N)=O)c1`
Resp: class 1

Req: Test call, this compound: `CC(=O)N(CC(O)CN(C(C)=O)c1c(I)c(C(=O)NC[C@@H](O)CO)c(I)c(C(=O)NC[C@@H](O)CO)c1I)c1c(I)c(C(=O)NC[C@@H](O)CO)c(I)c(C(=O)NC[C@@H](O)CO)c1I`
Resp: class 0

Req: Test call, this compound: `CN[C@@H]1[C@H](O[C@@H]2O[C@H](CO)[C@@H](N)[C@H](O)[C@@H]2O)O[C@H]2C[C@@H](N)[C@@H](O[C@H]3[C@@H](O)[C@H](O)[C@H](N)C[C@@H]3N)O[C@H]2[C@H]1O`
Resp: class 0

---

- System: CP325
- test details: qHTS profiling for inhibitors of Plasmodium falciparum proliferation (AID 504749); further: nearly all actives have a fitted effect of over 60% in size
- condition notes: P. falciparum in erythrocytes, SYBR Green DNA, 72 h; series mostly up to 12.8 µM
Inconclusive results are not listed. Activity calls are given as the source filed them. Calls come from the whole dose curve; as a rule, active = well fitted inhibition curve with a large enough effect; inconclusive = small, poorly fitted or top-dose-only effect; inactive = flat fitted curve, though single readings scatter.
observed property: outcome

A selection of reference data follows.
{"compound": "O=c1[nH]c(=O)n([C@@H]2C[C@H](O)[C@H](CO)O2)cc1I", "observed property": "outcome", "endpoint result": "inactive"}
{"compound": "C/C=C\\C(=O)N(CC)c1ccccc1C", "observed property": "outcome", "endpoint result": "inactive"}
{"compound": "C[C@@H](CCc1ccccc1)NC[C@H](O)c1ccc(O)c(C(N)=O)c1", "observed property": "outcome", "endpoint result": "inactive"}
{"compound": "CC(=O)N(CC(O)CN(C(C)=O)c1c(I)c(C(=O)NC[C@@H](O)CO)c(I)c(C(=O)NC[C@@H](O)CO)c1I)c1c(I)c(C(=O)NC[C@@H](O)CO)c(I)c(C(=O)NC[C@@H](O)CO)c1I", "observed property": "outcome", "endpoint result": "inactive"}
{"compound": "COCCc1ccc(OC[C@H](O)CNC(C)C)cc1", "observed property": "outcome", "endpoint result": "inactive"}

Req: Output measured outcome for this item: `CC(C)NC[C@H](O)c1cc(O)cc(O)c1`
Resp: inactive

Req: Output measured outcome for this item: `CO[C@H]1C[C@@H](O[C@@H]2[C@H](C)[C@H](O[C@@H]3O[C@@H](C)C[C@@H](N(C)C)[C@@H]3O)[C@H](C)C[C@]3(CO3)C(=O)[C@H](C)[C@H](O)[C@H](C)[C@H](C)OC(=O)[C@@H]2C)O[C@@H](C)[C@H]1O`
Resp: inactive

Req: Output measured outcome for this item: CN1[C@@H]2CC[C@H]1CC(OC(=O)[C@@H](O)c1ccccc1)C2 (stereo partly drawn)
Resp: inactive
